Target: T1, 4H454-AA
T1 chain: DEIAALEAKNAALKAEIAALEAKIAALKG
Assay: two-hybrid library CCmax;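 note: natural log of median RNA to DNA barcode read ratio; higher means stronger binding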
Details: mean of both orientations
For each of the binders below, state its interaction score.
Give bare numbers.

binder | result.value
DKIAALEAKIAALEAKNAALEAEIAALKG [4H2354-AA] | -0.846
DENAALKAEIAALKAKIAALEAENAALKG [4H1636-AA] | -1.23

For the 2 binders below, give their interaction score values.
1. DKNAALKAKIAALEAEIAALEAENAALKG [4H3844-AA]
2. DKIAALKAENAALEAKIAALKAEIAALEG [4H2729-AA]

Result:
1: -0.212; 2: 1.94
